- subject-of-test: human FOLR1 on cells (Hela, RPTEC/TERT1, OVCAR3, OV90, IGROV-1, JEG-3, KB, NCI-H441) (human, UniProt P15328 25-234)
- Sequence (P15328 25-234): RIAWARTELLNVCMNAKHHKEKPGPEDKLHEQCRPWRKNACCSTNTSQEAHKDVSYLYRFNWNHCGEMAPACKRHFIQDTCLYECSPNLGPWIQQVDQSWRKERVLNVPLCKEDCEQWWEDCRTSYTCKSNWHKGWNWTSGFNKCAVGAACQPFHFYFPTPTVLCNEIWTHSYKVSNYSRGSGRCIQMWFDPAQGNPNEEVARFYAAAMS
- assay-details: cell-based or functional assay
property-measured: Internalization ratio (%), OV90, 4 h
Provide only the numeric value, understood in %.

Record FR107-ADC (reference antibody mirvetuximab huFR107 conjugated to mc-VC-PAB-MMAE) (antibody, V domains shown, mc-VC-PAB-MMAE on cysteine thiols after TCEP reduction (positions not stated; DAR within 3~4), Control conjugate) VH: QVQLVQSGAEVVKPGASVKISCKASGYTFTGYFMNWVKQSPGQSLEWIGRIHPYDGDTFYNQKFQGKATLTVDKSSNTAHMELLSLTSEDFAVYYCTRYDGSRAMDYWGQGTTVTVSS VL: DIVLTQSPLSLAVSLGQPAIISCKASQSVSFAGTSLMHWYHQKPGQQPRLLIYRASNLEAGVPDRFSGSGSKTDFTLTISPVEAEDAATYYCQQSREYPYTFGGGTKLEIK , field Internalization ratio (%), OV90, 4 h: 28

Record F131-ADC (antibody F131 conjugated to mc-VC-PAB-MMAE) (antibody, V domains shown, mc-VC-PAB-MMAE on cysteine thiols after TCEP reduction (positions not stated; DAR within 3~4), Antibody-drug conjugate; also called F131 immunoconjugate) VH: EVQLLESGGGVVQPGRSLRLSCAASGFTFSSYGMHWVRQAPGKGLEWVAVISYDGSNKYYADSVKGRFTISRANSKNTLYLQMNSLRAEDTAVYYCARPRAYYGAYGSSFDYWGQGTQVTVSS VL: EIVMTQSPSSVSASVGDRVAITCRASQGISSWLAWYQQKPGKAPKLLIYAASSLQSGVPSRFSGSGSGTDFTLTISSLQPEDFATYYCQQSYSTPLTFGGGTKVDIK , field Internalization ratio (%), OV90, 4 h: 15

Record F8-ADC (antibody F8 conjugated to mc-VC-PAB-MMAE) (antibody, V domains shown, mc-VC-PAB-MMAE on cysteine thiols after TCEP reduction (positions not stated; DAR within 3~4), Antibody-drug conjugate; also called F8 immunoconjugate) VH: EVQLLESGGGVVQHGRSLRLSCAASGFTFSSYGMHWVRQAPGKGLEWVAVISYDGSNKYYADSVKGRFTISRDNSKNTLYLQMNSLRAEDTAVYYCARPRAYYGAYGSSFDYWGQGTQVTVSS VL: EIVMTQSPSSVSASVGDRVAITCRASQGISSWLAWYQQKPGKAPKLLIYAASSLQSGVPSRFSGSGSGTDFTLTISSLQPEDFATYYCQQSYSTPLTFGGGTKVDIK , field Internalization ratio (%), OV90, 4 h: 32.7

Record F26-ADC (antibody F26 conjugated to mc-VC-PAB-MMAE) (antibody, V domains shown, mc-VC-PAB-MMAE on cysteine thiols after TCEP reduction (positions not stated; DAR within 3~4), Antibody-drug conjugate; also called F26 immunoconjugate) VH: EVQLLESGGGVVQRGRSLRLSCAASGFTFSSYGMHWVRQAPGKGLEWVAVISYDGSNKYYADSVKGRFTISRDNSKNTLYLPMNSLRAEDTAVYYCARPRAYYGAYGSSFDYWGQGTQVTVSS VL: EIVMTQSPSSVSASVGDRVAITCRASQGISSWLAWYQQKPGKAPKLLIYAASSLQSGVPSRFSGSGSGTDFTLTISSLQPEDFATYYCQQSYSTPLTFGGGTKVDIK , field Internalization ratio (%), OV90, 4 h: 21.6
